Provide the reported growth inhibition of each item.
- METHOD SUMMARY: NCI Yeast Anticancer Drug Screen. Data for the mlh1 rad18 strain (AID 175)
- PARTICULARS: S. cerevisiae mlh1 rad18 strain growth inhibition; at 50.0 µM; stronger effect = higher value
- Method: Growth inhibition of yeast strains with defined genetic alterations is measured as a screen for potential anti-cancer activity. Selected strains with alterations in DNA damage repair or cell cycle control were exposed to compounds and growth inhibition was measured relative to vehicle treated controls. The strain used in this assay is mlh1 rad18
The panel holds about 79,000 compounds, 15% with a hit somewhere; the sample as a whole holds those more often.
Kindly provide the numeric value in % only, without the unit symbol.

For this molecule ( CNc1ncnc2c1ncn2C ), measured growth inhibition is -2.1

For this molecule ( Cc1ccc(-n2cc(-c3ccc(Cl)cc3)c3c(=N)n(N)cnc32)cc1 ), measured growth inhibition is 47

For this molecule ( CN(C)Cc1cc(Cl)c(O)c(CN(C)C)c1 ), measured growth inhibition is 15.1

For this molecule ( CC1(C)C/C(=C\c2ccc([N+](=O)[O-])cc2)C(=O)c2ccccc21 ), measured growth inhibition is 89

For this molecule ( CN(C)C(=O)Nc1cccc(OC(=O)NCCCl)c1 ), measured growth inhibition is 20.7

For this molecule ( CC(C)OC(=O)C1=C(C(=O)OC(C)C)CCCC1 ), measured growth inhibition is 13.7

For this molecule ( Brc1ccc(-c2ccc(Br)cc2)cc1 ), measured growth inhibition is -5.25

For this molecule ( COc1cc2cnc(-c3ccncc3)c(O)c2cc1OC ), measured growth inhibition is 28.6

For this molecule ( NC(=O)N/N=C/C(/C=N/NC(N)=O)[N+](=O)[O-] ), measured growth inhibition is 6.8

For this molecule ( CCOC(=O)C(C#N)C1=CC(=O)C(=O)c2ccc(OC)cc21 (stereo unspecified) ), measured growth inhibition is 9.1

For this molecule ( Cc1ccc2c(c1)CC1(C2=O)[C@H](c2ccccc2)C2C(=O)c3ccc(C)cc3C2[C@H]1c1ccccc1 (stereo partly specified) ), measured growth inhibition is 9.5

====

- METHOD SUMMARY: NCI Yeast Anticancer Drug Screen. Data for the bub3 strain (AID 167)
- PARTICULARS: S. cerevisiae bub3 mutant strain, at 50.0 µM
The panel holds about 79,000 compounds, 15% with a hit somewhere; the sample as a whole holds those more often. Active and inactive are the calls of the source. Cut-off read from the data, not from the text of the source: active = growth inhibition above about 70%; inactive = the rest.
Form entry, call: pick from active, inactive

Task item: Per the records of this test, what outcome belongs to CCCCCN(CCCCC)c1ccc(/C=C/c2ccnc3ccccc23)cc1 ?
Reply: inactive

Task item: Per the records of this test, what outcome belongs to Cc1cc2c(cc1C)[n+](=O)c(C(=O)C/C(=N/OCCCc1ccccc1)C(=O)Nc1cc(Cl)ccc1Cl)c(C)n2[O-] ?
Reply: inactive

Task item: Per the records of this test, what outcome belongs to NNc1c(F)c(F)c2c(F)c(F)c(F)c(F)c2c1F ?
Reply: active

Task item: Per the records of this test, what outcome belongs to Cc1cc(C)n(-c2nc(-n3nc(C)cc3C)nc(-n3nc(C)cc3C)n2)n1 ?
Reply: inactive

Task item: Per the records of this test, what outcome belongs to Cc1cn(CC(O)c2cc3ccccc3[nH]2)c(=O)[nH]c1=O (stereo unspecified) ?
Reply: inactive

Task item: Per the records of this test, what outcome belongs to O=CNCC1(c2ccccc2)CCN(Cc2ccccc2)CC1 ?
Reply: inactive

Task item: Per the records of this test, what outcome belongs to CCO/C=C1/N=C(c2ccccc2Cl)OC1=O ?
Reply: inactive

Task item: Per the records of this test, what outcome belongs to CCOC(=O)C1C(=O)CC(=O)C(C(=O)OCC)C1C1CC=CCC1 (stereo unspecified) ?
Reply: active

Task item: Per the records of this test, what outcome belongs to COC(=O)/C(=C/C=C/c1ccccc1)N=[N+]=[N-] ?
Reply: inactive

Task item: Per the records of this test, what outcome belongs to COc1cccc(C2C3=C(COC3=O)Oc3cc4c(cc32)OCO4)c1 (stereo unspecified) ?
Reply: inactive

Task item: Per the records of this test, what outcome belongs to CC(=O)OC1COC(n2c(=S)n(-c3ccccc3)c(=O)c3cc(Br)ccc32)C(OC(C)=O)C1OC(C)=O (stereo unspecified) ?
Reply: inactive

Task item: Per the records of this test, what outcome belongs to O=S1(=O)C=C(c2ccccc2)C1 ?
Reply: inactive

Task item: Per the records of this test, what outcome belongs to COc1ccc(NC(=O)C(=O)C2NC(=S)NC2=O)c(OC)c1 (stereo unspecified) ?
Reply: inactive

Task item: Per the records of this test, what outcome belongs to CSc1ccc(NC(=O)Nc2cc(C)c(C)cc2C)cc1 ?
Reply: inactive

Task item: Per the records of this test, what outcome belongs to CCn1c(=O)c2c3ccc(OC(C)=O)cc3[nH]c2c2ccc(OC(C)=O)cc21 ?
Reply: inactive

Task item: Per the records of this test, what outcome belongs to CC1C=CC(C(=O)Nc2ccc(Cl)c(Cl)c2)N1C (stereo unspecified) ?
Reply: inactive

Task item: Per the records of this test, what outcome belongs to COC(=O)N[C@H](C(=O)O)C(C)O[Si](C)(C)C(C)(C)C (stereo partly specified) ?
Reply: inactive

Task item: Per the records of this test, what outcome belongs to CCOC(=O)C(CCC#N)(NC(C)=O)C(=O)OCC ?
Reply: inactive

Task item: Per the records of this test, what outcome belongs to CC1(C)C2CCC1(C)C1(C2)OC(CCl)CS1 (stereo unspecified) ?
Reply: inactive

Task item: Per the records of this test, what outcome belongs to C/C(=N\NC(=O)CCCCC(=O)N/N=C(\C)c1ccc(C)cc1)c1ccc(C)cc1 ?
Reply: inactive

Task item: Per the records of this test, what outcome belongs to O/N=C1/C(=C/c2ccc(Br)cc2)CCCC1C(NO)c1ccc(Br)cc1 (stereo unspecified) ?
Reply: inactive

Task item: Per the records of this test, what outcome belongs to Cc1cc(N(CCC#N)S(=O)(=O)c2ccccc2)ccc1C=Nc1ccc(C(=O)O)cc1 ?
Reply: inactive

Task item: Per the records of this test, what outcome belongs to CCCCN(CCCC)C1(c2ccccc2)OC(c2ccccc2)=CC1=O (stereo unspecified) ?
Reply: inactive

Task item: Per the records of this test, what outcome belongs to Cc1ccc(N(C(=O)CC(=O)N/N=C/c2ccccc2O)C(=O)c2ccccc2)cc1 ?
Reply: inactive

Task item: Per the records of this test, what outcome belongs to O=C(NNC(=S)NCc1ccccc1)C12CC3CC(CC(C3)C1)C2 ?
Reply: inactive

Task item: Per the records of this test, what outcome belongs to CCCCC(CC)CCC(C)=O (stereo unspecified) ?
Reply: inactive

Task item: Per the records of this test, what outcome belongs to CNC(=O)c1ccccc1C ?
Reply: inactive

Task item: Per the records of this test, what outcome belongs to O=C(N(CCc1ccc(O)cc1)Cc1ccc2c(c1)OCO2)C(F)(F)F ?
Reply: active

Task item: Per the records of this test, what outcome belongs to COc1ccc(C2=NOC(c3ccc(OC)cc3)C2)cc1 (stereo unspecified) ?
Reply: inactive

Task item: Per the records of this test, what outcome belongs to CC(C)(C)C(=O)CC(=O)C(C)(C)C.CC(C)(C)C(=O)CC(=O)C(C)(C)C.CC(C)(C)C(=O)CC(=O)C(C)(C)C.[Co] ?
Reply: inactive

Task item: Per the records of this test, what outcome belongs to O=C(CCc1nnc2s/c(=C\c3ccccc3)c(=O)n12)Nc1cc(Cl)ccc1Cl ?
Reply: inactive

====

Provide the reported growth inhibition of each item.
- METHOD SUMMARY: NCI Yeast Anticancer Drug Screen. Data for the sgs1 mgt1 strain (AID 161);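 further: 0% = growth of cultures given vehicle only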
- PARTICULARS: S. cerevisiae sgs1 mgt1 strain, at 50.0 µM, stronger effect = higher value
- Description: Growth inhibition of yeast strains with defined genetic alterations is measured as a screen for potential anti-cancer activity. Selected strains with alterations in DNA damage repair or cell cycle control were exposed to compounds and growth inhibition was measured relative to vehicle treated controls. The strain used in this assay is sgs1 mgt1
Compounds without any hit were thinned out: in the full panel of roughly 79,000, 15% have a hit.
Kindly provide the numeric value in % only, without the unit symbol.

For this molecule ( NC(CCC(=O)OCCn1c2ccccc2c2ccccc21)C(=O)O (configuration not stated) ), measured growth inhibition is 3.3

For this molecule ( c1ccc2c(c1)cc1n2CCc2c-1[nH]c1ccccc21 ), measured growth inhibition is 4.2

For this molecule ( COc1cc([N+](=O)[O-])cc(C(C)=O)c1O ), measured growth inhibition is 31.5

For this molecule ( C=C1CCC23CC(CC[C@@H]2[C@@]12C[C@@H](c1ccoc1)OC2=O)OC3=O (some centres not stated) ), measured growth inhibition is -8.6

For this molecule ( O=C(NNC1=NCCCN1)c1ccco1 ), measured growth inhibition is 9.25

For this molecule ( CN(C)c1cccc2c1C(=O)C=CC21c2ccc(N(C)C)c3c(N(C)C)ccc(c23)C(c2ccccc2)C1c1ccccc1 (configuration not stated) ), measured growth inhibition is -4.55

For this molecule ( OCCN(Cc1ccccc1)C(c1ccccc1)C(O)c1ccccc1 (configuration not stated) ), measured growth inhibition is 24.2

For this molecule ( O=[N+]([O-])c1ccc2[nH]ncc2c1 ), measured growth inhibition is 0.35

For this molecule ( CCCNc1nc(Cl)nc2c1cnn2C ), measured growth inhibition is 9.5

For this molecule ( O=C(CN1CCCCC1)c1ccc(CCc2ccc(C(=O)CN3CCCCC3)cc2)cc1 ), measured growth inhibition is 33.9

For this molecule ( O=C(O)C(=Cc1ccc(-c2ccc([N+](=O)[O-])cc2)o1)C(=O)O ), measured growth inhibition is -12.8

For this molecule ( CCCCCCCCCCCSc1ccc2ccccc2c1 ), measured growth inhibition is 6.75

Values were extracted from PubChem BioAssay (NCI).
